tested on: phosphorylated 4E-BP1 Thr37/46 (p4E-BP1 Thr37/46), mTORC1 activity, PC3 cells; experiment: mTOR target engagement assay, immunofluorescent cell-based, p4E-BP1 Thr37/46 readout (mTORC1 activity); settings: Homo sapiens, PC-3, read-out: p4E-BP1 Thr37/46 IC50
pIC50: −log10 of the molar value.
Property: pIC50

Fill in the blank: the reported pIC50 of CC(=O)c1c([C@@H]2C[C@H]3CC[C@@H](C2)N3C(=O)CF)nc2c(-c3ccc(-c4ncc[nH]4)nc3)cnn2c1N is ____. 7.00 to 9.00

----------
tested on: phosphorylated 4E-BP1 Thr37/46 (p4E-BP1 Thr37/46), mTORC1 activity, PC3 cells; test: mTOR target engagement assay, immunofluorescent cell-based, p4E-BP1 Thr37/46 readout (mTORC1 activity); conditions: PC3 cells, compound treatment ninety minutes at 37° C.; read-out: p4E-BP1 Thr37/46 IC50
pIC50: −log10 of the molar value.
Property: pIC50

Query for phosphorylated 4E-BP1 Thr37/46 (p4E-BP1 Thr37/46), mTORC1 activity, PC3 cells: what pIC50 does the record show for CC(=O)c1c([C@@H]2C[C@H]3CC[C@@H](C2)N3C(=O)c2nnc[nH]2)nc2c(-c3ccc4ccc(F)cc4c3)cnn2c1N ? 7.00 to 9.00

----------
system: phosphorylated AKT Ser473 (pAKT S473), mTORC2 activity, PC3 cells; experiment: mTOR target engagement assay, immunofluorescent cell-based, pAKT S473 readout (mTORC2 activity); settings: Homo sapiens, PC-3, Table 7-8; PC3 cells
pIC50: −log10 of the molar value.
The entries below come with measured pIC50 values attached.

[
  {
    "Molecule": "CS(=O)(=O)c1c([C@@H]2C[C@H]3CC[C@@H](C2)N3C(=O)c2nnc[nH]2)nc2c(-c3ccc(C4(O)CCC4)nc3)cnn2c1N",
    "Tested System": "phosphorylated AKT Ser473 (pAKT S473), mTORC2 activity, PC3 cells",
    "Endpoint Result": "7.00 to 9.00"
  },
  {
    "Molecule": "CS(=O)(=O)c1c([C@@H]2C[C@H]3CC[C@@H](C2)N3C(=O)CO)nc2c(-c3ccc(C4(O)CCCC4)nc3)cnn2c1N",
    "Tested System": "phosphorylated AKT Ser473 (pAKT S473), mTORC2 activity, PC3 cells",
    "Endpoint Result": "6.00 to 7.00"
  },
  {
    "Molecule": "CC(C)(O)c1ccc(-c2cnn3c(N)c(C4CC4)c([C@@H]4C[C@H]5CC[C@@H](C4)N5C(=O)c4nnc[nH]4)nc23)cn1",
    "Tested System": "phosphorylated AKT Ser473 (pAKT S473), mTORC2 activity, PC3 cells",
    "Endpoint Result": "7.00 to 9.00"
  },
  {
    "Molecule": "CS(=O)(=O)c1c([C@@H]2C[C@H]3CC[C@@H](C2)N3C(=O)c2nnc[nH]2)nc2c(-c3ccc(C4(O)CCCC4)nc3)cnn2c1N",
    "Tested System": "phosphorylated AKT Ser473 (pAKT S473), mTORC2 activity, PC3 cells",
    "Endpoint Result": "7.00 to 9.00"
  },
  {
    "Molecule": "CS(=O)(=O)c1c([C@@H]2C[C@H]3CC[C@@H](C2)N3C(=O)CO)nc2c(-c3ccc(C4(O)COC4)nc3)cnn2c1N",
    "Tested System": "phosphorylated AKT Ser473 (pAKT S473), mTORC2 activity, PC3 cells",
    "Endpoint Result": "5.00 to 6.00"
  }
]

Fill in the blank: the reported pIC50 of Nc1c(C2CC2)c([C@@H]2C[C@H]3CC[C@@H](C2)N3C(=O)c2nnc[nH]2)nc2c(-c3ccc(C4(O)CCC4)nc3)cnn12 is ____. 6.00 to 7.00

Okay, and Nc1c(Br)c([C@@H]2C[C@H]3CC[C@@H](C2)N3C(=O)c2nnc[nH]2)nc2c(-c3ccc(C4(O)CCC4)nc3)cnn12 ? 5.00 to 6.00
